B1: Caulobacter ParB omega fusion; a variant is named by its letters at X, in order, B8GW30 (parent)
chain: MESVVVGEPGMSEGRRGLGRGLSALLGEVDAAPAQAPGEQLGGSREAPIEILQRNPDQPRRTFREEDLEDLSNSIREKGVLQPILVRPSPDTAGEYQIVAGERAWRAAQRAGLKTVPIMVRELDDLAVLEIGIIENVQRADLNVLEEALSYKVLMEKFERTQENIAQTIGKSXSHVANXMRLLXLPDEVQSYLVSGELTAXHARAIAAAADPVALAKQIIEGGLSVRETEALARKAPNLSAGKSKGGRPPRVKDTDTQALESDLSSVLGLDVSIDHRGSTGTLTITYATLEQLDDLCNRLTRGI

Variants of: B1
assay remarks: one-hybrid fitness for binding NBS DNA (the Noc-binding site; scaled: cognate 1, non-cognate 0); higher = stronger binding
particulars: with NBS DNA site
The full ranking holds about 81,000 sequences; the median of “one-hybrid fitness for binding NBS DNA” is about -0.1, and the highest 2% start at about 0.36. For the sample, the highest values were picked, then their nearest neighbours and some sequences at random.
one-hybrid fitness for binding NBS DNA values by entry

As a guide, the following entries are already answered.
variant_key=WSFT assay_metric="one-hybrid fitness for binding NBS DNA" value_measured="≤ 0.2"
variant_key=SHHD assay_metric="one-hybrid fitness for binding NBS DNA" value_measured="≤ 0.2"
variant_key=QAVK assay_metric="one-hybrid fitness for binding NBS DNA" value_measured="≤ 0.2"
variant_key=FAFL assay_metric="one-hybrid fitness for binding NBS DNA" value_measured=0.451
variant_key=QRKK assay_metric="one-hybrid fitness for binding NBS DNA" value_measured=0.777
variant_key=GQTK assay_metric="one-hybrid fitness for binding NBS DNA" value_measured="≤ 0.2"
variant_key=QDCR assay_metric="one-hybrid fitness for binding NBS DNA" value_measured="≤ 0.2"
variant_key=PSAI assay_metric="one-hybrid fitness for binding NBS DNA" value_measured="≤ 0.2"
variant_key=QFNR assay_metric="one-hybrid fitness for binding NBS DNA" value_measured=0.268
variant_key=YGMS assay_metric="one-hybrid fitness for binding NBS DNA" value_measured="≤ 0.2"

Query block: Consider the variant "SYHE" and give its measured one-hybrid fitness for binding NBS DNA.
Result block: ≤ 0.2

Query block: Also, "FARL" please.
Result block: ≤ 0.2

Where these numbers come from: a collection of fitness landscapes (doi:10.1016/j.celrep.2020.107928)
